- System: MCF7 breast
- test_description: NCI-60 one-dose screen, 48 h (100 = growth as untreated, 0 = no growth, -100 = all killed)
- condition: 10 µM unless noted
This is part of a sample that, as a whole, favours compounds with a hit. Of some 83,000 tested, about 20% had one in any assay.
Give measured growth for each item. Keep answers brief.
Just the number please, in %, no unit attached.

Tested on MCF7 breast, the item Nc1c(S(=O)(=O)O)cc2c3c(cccc13)C(=O)OC2=O showed growth equal to 94.8

Tested on MCF7 breast, the item C/C(=N\NC(=O)CSc1nc2ccccc2c(=O)n1CCc1ccc(S(N)(=O)=O)cc1)c1ccccn1 showed growth equal to 34.5

Tested on MCF7 breast, the item O=S(=O)(NCCNc1nccc(-c2c(-c3cccc(F)c3)nc3sccn23)n1)c1ccc(Br)cc1 showed growth equal to 23.5

Tested on MCF7 breast, the item COc1ccc(C(=O)Cn2c(C(=O)c3ccccc3)nc3ccccc32)cc1 showed growth equal to 17.5

Tested on MCF7 breast, the item CCCCCCNC(=O)Oc1ccc(/C(=C(\C)c2ccccc2)c2ccc(OCCN3CCCCC3)cc2)cc1 showed growth equal to 12.7

Tested on MCF7 breast, the item COc1cc2c(=O)n(CCCN(C)C)c3c4cc5c(cc4ccc3c2cc1OC)OCO5 showed growth equal to 25.3

Tested on MCF7 breast, the item COc1cc2c(=O)n(CCN(C)C)c3c4cc5c(cc4ccc3c2cc1OC)OCO5 showed growth equal to 7.27

Tested on MCF7 breast, the item Cc1ccc(NC(=O)c2cc(-c3nc4ccccc4s3)c(=O)n(NS(=O)(=O)c3ccc(Cl)cc3)c2N)cc1 showed growth equal to 93.7

Tested on MCF7 breast, the item COc1ccc(/C=C/c2nc(Nc3ccc(Cl)cc3)c3ccccc3n2)cc1 showed growth equal to 44
